Assay: growth inhibition of S. aureus RN4220, primary screen, OD600 (AID 1259311);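 also: plate controls were untreated cells for no effect and reference antibiotic for full effect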
Conditions: OD600, 16 h
The campaign covered roughly 330,000 compounds. About 1,100 (0.33%) were called active. Rule as the data show it: active = inhibition above about 85%; inactive = the rest. Shown is part of a subset that was picked to be rich in actives.
Your response should consist of one outcome taken from 1 for active, -1 for inactive

Example entries and their recorded answers appear below.
molecule="CC1COc2ccccc2N1C(=O)c1ccc(F)cc1 (stereo unspecified)" class_assignment=-1
molecule=Cc1[nH]c2ccccc2c1C=NNC(=O)CNC(=O)c1cccs1 class_assignment=-1
molecule=Cc1cccc(OCC(=O)NN=Cc2ccc(N(C)C)cc2)c1 class_assignment=-1
molecule="CC(=O)OCC(=O)C1CCC2C3CCC4CC(O)CC[C@]4(C)C3C(=O)C[C@]12C (stereo partly specified)" class_assignment=-1
molecule=COC(=O)NN=C(C)c1ccc(Br)cc1 class_assignment=-1

Consider the record given below.
*Q* Hi, do you know how `CCOC(=O)C1(CCOc2ccccc2)CCN(Cc2cc(OC)cc(OC)c2)CC1` came out in this test?
*A* -1

====

Experiment: growth inhibition of S. aureus RN4220, primary screen, OD600 (AID 1259311);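 also: plate controls were untreated cells for no effect and reference antibiotic for full effect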
Settings: OD600, 16 h
Hit rate of the full screen: of about 330,000 compounds, about 1,100 (0.33%) were called active. Rule as the data show it: active = inhibition above about 85%; inactive = the rest. The entries come from a sample that favours actives as a whole.
Your response should consist of one outcome taken from active, inactive

compound=CN1CCN(CCC(=O)NN=Cc2cc([N+](=O)[O-])ccc2O)CC1 class_assignment=active
compound="CCC1=C2CCC3C(=O)N(CC)C(=O)C3C2[C@@]2(Cc3ccccc3)C(=NCCOC)OC(=O)N2C1=O (stereo partly specified)" class_assignment=inactive
compound=N#CC(=NNc1ccc(Cl)cc1)C(=O)c1ccccc1 class_assignment=active
compound=Cc1cccc(C(=O)Oc2ccccc2C=NNc2ccc([N+](=O)[O-])cc2)c1 class_assignment=inactive
compound="O=C(Nc1ncc([N+](=O)[O-])s1)C1COc2ccccc2O1 (stereo unspecified)" class_assignment=active

*Q* Hi, do you know how CC(NC(=O)c1nc[nH]c1C(=O)N(C)Cc1ccccc1)C(=O)OC(C)(C)C (stereo unspecified) came out in this test?
*A* inactive

*Q* Hi, do you know how `CON=Cc1ccc(Sc2ccc(C)cc2)c([N+](=O)[O-])c1` came out in this test?
*A* inactive

*Q* Hi, do you know how O=C1C2N=NN(CC(=O)N3N=C(c4cccc5ccccc45)CC3c3ccccc3)C2C(=O)N1c1ccccc1 (stereo unspecified) came out in this test?
*A* inactive

*Q* Hi, do you know how `CN1CCN(N=Cc2nc(-c3ccccc3Cl)n3ccccc23)CC1` came out in this test?
*A* inactive

====

Test: growth inhibition of S. aureus RN4220, primary screen, OD600 (AID 1259311);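 also: plate controls were untreated cells for no effect and reference antibiotic for full effect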
Conditions: OD600, 16 h, stronger effect = higher value
Among all 330,000 compounds or so, about 1,100 (0.33%) were called active. The entries come from a sample that favours actives as a whole.
recorded-endpoint: inhibition (%)
Answers are plain numbers, in %.

compound="Cc1ccc(N2C(=O)N3C(c4ccc(Br)cc4)C4C(=O)N(C(C)(C)C)C(=O)C4[C@]3(C)C2=O)cc1 (stereo not given in full)" recorded_endpoint=inhibition measurement_unit=% recorded_measurement=5.35

Please state, for each entry, its recorded inhibition.
1. CCOc1cc(C=NO)ccc1OCc1ccccc1F
2. CCCCCCCCn1c2c(c(=N)c3c1CCC3)CCCC2
3. COc1ccc(-c2csc3ncnc(N4CCN(S(=O)(=O)c5cccc(F)c5)CC4)c23)cc1
4. O=C(NN=Cc1cc(Cl)cc([N+](=O)[O-])c1O)c1cccc(S(=O)(=O)N2CCOCC2)c1
5. Cc1cccc(-n2c(C)cc(C=NO)c2C)c1
6. COc1ccc(C=NNC(=O)C(=O)N2CCCCCC2)cc1
7. Cc1c(CCOC(=O)c2cc([N+](=O)[O-])ccc2Cl)sc[n+]1CCCCS(=O)(=O)[O-]
8. O=C(Nc1ccccc1)Oc1cccc2cccnc12

*A*
1. 7.66
2. 100
3. 2.78
4. 5.65
5. -4.73
6. 0.0129
7. -3.66
8. 94.9

Please state, for each entry, its recorded inhibition.
1. O=C(Nc1ccccc1C(=O)Nc1ccncc1)c1ccc([N+](=O)[O-])cc1
2. CCCCC1CC1C(NC(=O)c1ccccc1)c1ccccc1C(F)(F)F (stereo not given)
3. Cc1ccc(OCC(=O)NN=Cc2cc([N+](=O)[O-])ccc2N2CCCCC2)cc1
4. NC(=O)C1CCN(C(=O)COc2cccc3cccnc23)CC1
5. O=C(Cn1cnc2ccccc21)NN=Cc1ccccn1
6. Cc1c(CN2CCC(CO)(CCOc3ccccc3)CC2)[nH]c2ccc(Cl)cc12
7. CCCCC1CC1C(NC(=O)c1ccco1)c1ccccc1C(F)(F)F (stereo not given)
8. COc1ccc(S(=O)(=O)N2CCN(c3ncnc4c(-c5ccccc5)nsc34)CC2)cc1

*A*
1. 3.63
2. 9.97
3. 15.8
4. -6.77
5. -0.52
6. 97.5
7. 6.05
8. 4.04

Please state, for each entry, its recorded inhibition.
1. Cc1nn(Cc2ccc(F)cc2)c(Cl)c1C=NNC(=O)c1cccnc1
2. CCCOc1ccc(C=NNC(=O)CSCc2ccc([N+](=O)[O-])cc2)cc1OCC
3. CCOC(=O)C1(CCOc2ccccc2)CCN(Cc2ccc(C#CCCO)cc2)CC1

*A*
1: 4.34; 2: 3.47; 3: 5.24
